assay: Metabolic stability test in plasma; type: in vitro ADME, human; conditions: unchanged form after 60 minutes at 37°C in human plasma, LC/MS; read-out: Remaining rate in human plasma (%/60min)
Measured metric: remaining at 1 h (%)

CN(C)C(=O)c1cc(CCCC(=O)Oc2ccc(C#N)cc2)ccc1NC(=O)c1ccccc1-c1ccc(C(F)(F)F)cc1; 0

I: CN(C)C(=O)c1cc(CCCC(=O)Oc2ccc(C(=O)OCCN3CCCC3=O)cc2)ccc1NC(=O)c1ccccc1-c1ccc(C(F)(F)F)cc1
II: CN(C)C(=O)c1cc(CCCC(=O)Oc2ccc(C(=O)OC3CCc4ccccc43)cc2)ccc1NC(=O)c1ccccc1-c1ccc(C(F)(F)F)cc1 (stereo not shown)
Compare reported remaining at 1 h values for I and II . Which is lower? Answer by stating the label of the chosen item.
I

These data points were gathered from patent EP1803452A1.
